Test: Biodistribution in HEK-ACE2/HEK-ACE xenografted mice
Type: in vivo, mouse
Conditions: female, CD1/nude, mouse, spleen, iv, 0.5 nmol, total radioactivity, 3 h after i.v. injection, decay-corrected, n = 3; read-out: Biodistribution: spleen
Residues, ends and D or L forms follow the SMILES beside them. *: point of attachment. DOTA = O=C(O)CN1CCN(CC(=O)O)CCN(CC(=O)*)CCN(CC(=O)O)CC1; Ahx = NCCCCCC(=O)O
result-type: tissue uptake at 3 h
Answer format: value, then unit.

For the compound CC[C@H](C)[C@H](NC(=O)[C@H](CCC(N)=O)NC(=O)[C@@H]1CCCN1C(=O)[C@H](CCCNC(=N)N)NC(=O)[C@@H]1CCCN1C(=O)[C@H](Cc1c[nH]c2ccccc12)NC(=O)[C@H](CCC(=O)O)NC(=O)CCCCCNC(=O)CCCCCNC(=O)CN1CCN(CC(=O)O)CCN(CC(=O)O)CCN(CC(=O)O)CC1)C(=O)N1CCC[C@H]1C(=O)N1CCC[C@H]1C(=O)O [[^67Ga]Ga-DOTA-BPP9a, metal not drawn] ({DOTA-Ahx-Ahx}-EWPRPQIPP-OH) , give its measured tissue uptake at 3 h value. 0.08 %ID/g
